Data provenance: PubChem BioAssay (NCI)

Tested on: HOP-92 NSCLC
assay procedure: NCI tumour cell line growth inhibition, 48 h
Below: a set of entries, each annotated with reported log10(TGI).
// stored as log10 of TGI expressed in µM

Here is how some compounds turned out for log10(TGI).
compound=C#C[C@]1(O)[C@@H](CO)O[C@@H](n2ccc(N)nc2=O)[C@@H]1O result_number=1.10
compound=O=C1/C(=C\c2ccccc2)CN(C(=O)c2ccccc2)C/C1=C\c1ccccc1 result_number=1.32
compound=O=C(O)c1ccc(C(=O)O)c(C(=O)O)c1.[NH-]C1CCCCC1[NH-].[Pt+2] result_number=1.73
compound=COc1cc(/C=C/C(=O)c2c(C)nc3ccccc3c2C)ccc1OCCCCOc1cc2c(cc1OC)C(=O)N1CCC[C@H]1C=N2 result_number=-0.20
compound=COc1cc2c(cc1OCCCCn1c(-c3cccs3)nc3ccccc31)N=C[C@@H]1CCCN1C2=O result_number=0.74
compound=O=C(Cc1ccc(Nc2ccnc(C(F)(F)F)c2)cc1)N/N=C/c1ccccc1O result_number=1.32

Task: Give the reported value of log10(TGI) for this record: COc1cc(/C=C/C(=O)c2ccc(F)cc2)ccc1OCCCCCOc1cc2c(cc1OC)C(=O)N1CCCC1C=N2 (stereo not drawn)
Result: -0.24

Task: Please supply the value of reported log10(TGI) for the item C=CC(OC(=O)C(C)C)c1ccc(OC(=O)C(C)C)cc1 (stereo not drawn)
Result: 1.50

Task: Given the compound CCCCCCCCCCCCCCCC(=O)Nc1ccn(C2CCC(COP(=O)(O)OCC3OC(n4cc(F)c(=O)[nH]c4=O)CC3OC(C)=O)O2)c(=O)n1 (stereo not drawn) , write its reported log10(TGI).
Result: 1.82

Task: Fill in log10(TGI) for record O=C(Oc1c(Br)cc(Br)cc1C(=O)Oc1ccccc1)C(=O)Oc1c(Br)cc(Br)cc1C(=O)Oc1ccccc1
Result: 1.58

###

System: NCI-H522 lung
assay procedure: NCI tumour cell line growth inhibition, 48 h
quantity kind: GI50

molecule="COc1cc(/C=C/C(=O)c2ccc(F)cc2)ccc1OCCCCCOc1cc2c(cc1OC)C(=O)N1CCCC1C=N2 (stereo not drawn)" quantity_kind=GI50 result="31.8 nM"
molecule=CCCOc1ccc(/C=N/Nc2cc(C)nc3ccc(Cl)cc23)cc1 quantity_kind=GI50 result="1750 nM"
molecule=CCCCCCc1cc2cc(-c3csc(/C=C/c4ccccc4)n3)c(=O)oc2cc1O quantity_kind=GI50 result="3930 nM"
molecule=O=C(NS(=O)(=O)c1ccc(NC[C@H]2COCCO2)c([N+](=O)[O-])c1)c1ccc(N2CCN(CC3=C(c4ccc(Cl)cc4)CC4(CCC4)CC3)CC2)cc1Oc1cnc2[nH]ccc2c1 quantity_kind=GI50 result="1930 nM"
molecule=COC(=O)[C@@H](C)C[C@H](Cc1ccccc1)NC(=O)c1csc([C@@H](C[C@H](C(C)C)N(C)C(=O)C2(NC(=O)[C@H]3CCCCN3C)CCC2)OC(C)=O)n1 quantity_kind=GI50 result="1.65 nM"
molecule=NC(=N\N=C/c1ccc(Cl)cc1Cl)/C(N)=N\N=C/c1ccc(Cl)cc1Cl quantity_kind=GI50 result="63000 nM"

Then there is this molecule:
Task: Indicate the recorded GI50 value for this molecule: O=C1c2cccnc2C(=O)c2c1c(C(=O)OCCc1ccccn1)c1ccccn21
Result: 120 nM

###

System: SR leukemia
assay procedure: NCI tumour cell line growth inhibition, 48 h; in the data active = GI50 below about 0.43 µM; inactive = the rest
Tick one outcome: 1 for active, 0 for inactive

Worked cases, answers included:
smi=O=C([O-])CCc1ccccc1.O=C([O-])CCc1ccccc1.O=C([O-])CCc1ccccc1.O=C([O-])CCc1ccccc1.[Mo+2].[Mo+2] group_label=0
smi=CN(CSc1ccc(Cl)cc1)c1ccc(CSc2ccc(Cl)cc2)cc1 group_label=0
smi=CC(C)OCc1cc(CN2CCN(c3cccc(Cl)c3)CC2)c(O)c2ncccc12 group_label=1

Task: Fill in: this test's call for COc1cc2c(cc1OCCCCn1c(-c3cccs3)nc3ccccc31)N=C[C@@H]1CCCN1C2=O is ___
Result: 0

Task: Identify the outcome logged in this assay for the compound shown: FC(F)(F)c1ccc(-c2ncc(-c3ccc(C(F)(F)F)cc3)c(NCc3cc(C(F)(F)F)cc(C(F)(F)F)c3)n2)cc1
Result: 0

Task: Per the assay record, what outcome was assigned to O=Cc1ccc(-c2ccc(-c3ccc(C=O)o3)[se]2)o1 ?
Result: 0

Task: Call for entry CCCOc1ccc(/C=N/Nc2cc(C)nc3ccc(Cl)cc23)cc1 :
Result: 0

Task: Tell me the assay call for COc1ncc(-c2ccc3nccc(C#CCN4CCN(S(C)(=O)=O)CC4)c3c2)cc1NS(=O)(=O)c1ccc(F)cc1F please.
Result: 1

Task: Per the assay record, what outcome was assigned to NCCCNc1nc2ccc(Cl)cc2c2c(=O)c3cc(F)ccc3sc12 ?
Result: 0

###

Tested on: M14 melanoma
assay procedure: NCI tumour cell line growth inhibition, 48 h
quantity kind: TGI

Some solved entries appear below for comparison.
molecule="CC(Cc1cccc2c1Nc1ccccc1S2)N(C)CCO (stereo not given)" quantity_kind=TGI result="> 100 µM"
molecule=CCOc1cc(/C=C/C(=O)C(C(=O)/C=C/c2ccc(OC(=O)CNc3nnc(C)s3)c(OCC)c2)C(=O)CNc2nnc(C)s2)ccc1OC(=O)CNc1nnc(C)s1 quantity_kind=TGI result="10 µM"
molecule="O=C1CCCCC1C(O)(C(F)(F)F)C(F)(F)Cl (stereo not given)" quantity_kind=TGI result="> 10 µM"
molecule=Cc1ccc(C(=O)N2CCCCC2)cc1N=NN(C)C quantity_kind=TGI result="> 100 µM"

Task: Look up and report measured TGI for this entry: N#Cc1c(-c2ccccc2)cc(-c2cccs2)c(C#N)c1N
Result: > 100 µM

###

Test system: UO-31 renal
assay procedure: NCI tumour cell line growth inhibition, 48 h
This listing pairs compounds with measured TGI.

The examples below pair each entry with its known result.
compound=Cc1cc(=O)oc2cc(OC(=O)Nc3ccccc3)ccc12 assayed_target="UO-31 renal" quantity_kind=TGI result="> 100 µM"
compound="Oc1ccc(Cc2ccc(O)c(C3CC(c4ccc(Cl)cc4)=NN3)c2)cc1C1CC(c2ccc(Cl)cc2)=NN1 (centres undefined)" assayed_target="UO-31 renal" quantity_kind=TGI result="> 100 µM"
compound=CC[C@@H]1CC[C@@H]2[C@H](CC[C@]3(C)[C@@H](OC(C)=O)CC[C@@H]23)[C@H]1C(=O)OC assayed_target="UO-31 renal" quantity_kind=TGI result="> 100 µM"

Task: Note TGI for the compound shown: c1ccc(-c2cn(-c3ccccc3)c(-c3ccccc3)n2)cc1
Result: 22.9 µM

Task: Return value of TGI for input O=C1Nc2ccccc2/C1=C\c1c(-c2ccccc2)nc2n1CCS2 , no commentary.
Result: 80.6 µM

Task: Please give measured TGI of the following entry: C=C1CC(C)(COc2cc(=O)oc3ccccc23)OC1=O (centres undefined)
Result: 24.8 µM

Task: For the compound O=C(c1ccccc1)C(Nc1ccc2ccccc2c1)c1ccccc1 (centres undefined) , give its reported TGI.
Result: > 100 µM

Task: Quickly give me recorded TGI for COc1cc(C2C(C(=O)O)=C(COC(C)=O)Oc3cc4c(cc32)OCO4)cc(OC)c1OC(C)=O (centres undefined)
Result: > 100 µM

Task: Given the compound O=C(O)c1cccc(OCCOc2cccc(C(=O)O)c2[N+](=O)[O-])c1[N+](=O)[O-] , write its reported TGI.
Result: > 100 µM

###

Test system: CCRF-CEM leukemia
assay procedure: NCI tumour cell line growth inhibition, 48 h
quantity kind: TGI

Sample records with TGI:
compound=FC(F)(F)c1cc(-c2ncn(/C=C\c3nnco3)n2)cc(C(F)(F)F)c1 quantity_kind=TGI result="> 100 µM"
compound=CN1c2ccccc2C(=O)NC12CCNCC2 quantity_kind=TGI result="> 100 µM"
compound=O=Cc1ccc(-c2ccc(-c3ccc(C=O)o3)[se]2)o1 quantity_kind=TGI result="> 100 µM"
compound="O=C1CCCCC1C(O)(C(F)(F)F)C(F)(F)Cl (configuration not stated)" quantity_kind=TGI result="> 10 µM"

Task: Determine from records and report TGI for CN(C)c1ccc(/C=c2\sc3nnc(-c4cccnc4)n3c2=O)cc1
Result: > 100 µM

Task: Look up TGI of OCC1OC(n2cnc3c(SCc4ccccc4)ncnc32)C(O)C1O (configuration not stated) and report it.
Result: 3.55 µM

Task: Read the entry Nc1nc(N)c2ncn(-c3ccccc3)c2n1 and write its reported TGI.
Result: > 100 µM

Task: Tell me measured TGI for N#CC(/C(=N/NC(N)=S)C(=O)Nc1cccc(Cl)c1)c1ccccc1 (configuration not stated) please.
Result: > 100 µM

Task: Specify reported TGI for the compound shown: NS(=O)(=O)c1ccc(N=C2C(=O)Nc3ccccc32)cc1
Result: > 100 µM

Task: Give TGI for the following compound: CCN1C(=O)N(CC)C2C1NC(=S)N2/N=C/C=C/c1ccccc1OC (configuration not stated)
Result: > 100 µM

Task: Look up and state reported TGI for C#CCn1c(=O)c2cccnc2n(CC#C)c1=O
Result: > 100 µM

Task: Find the measured TGI of C=C1C(=O)c2cc3c(cc2C(c2cc(OC)c(OC)c(OC)c2)[C@@H]1C(=O)O)OCO3 (some centres not stated) and report it.
Result: > 100 µM

Task: Report TGI for CN1C(=O)CN2C(Cl)(Cl)C2(c2ccccc2)c2cc(Cl)ccc21 (configuration not stated)
Result: > 100 µM
